system: MCF7 cells; test: AlamarBlue cell viability assay, MCF7; format: cell-based, human; details: AlamarBlue, read-out: Cell Viability (MCF7 Cells) IC50 ± SD
Endpoint: IC50 (µM)
Numbers only, in µM.

[[record]]
smiles = "COc1ccc(Nc2ccc(C)cn2)cc1C12CC3CC(CC(C3)C1)C2"
value = 42.2


For every listed record, write down its IC50.
1. COc1ccc(Nc2ccc(C(F)(F)F)cc2)cc1C12CC3CC(CC(C3)C1)C2
2. COc1ccc(Nc2cccc3ccccc23)cc1C12CC3CC(CC(C3)C1)C2

Result:
6.29
47.6
